- targetOrSystem: T1, HIV-1 NefSF2 (Δ1-44), C210A (HIV-1 SF2, UniProt P03407 45-210, C210A)
- T1 construct: source: E. coli BL21(DE3), purified (Ni-NTA, Superdex 75)
- assayNotes: ITC
- settings: both partners purified
endpoint: Kd (nM)
Please state the figure in nM; there is no need to write the unit.

Problem: For the binder shown here, NI1-3, Hck-SH3 (78-138) with RT loop Y90SPFSW (domain or fragment, source: bacteria (pGEX-4T1 Tev vector), purified (GSH resin, Superdex 75)) SEDIIVVALYDYYSPFSWDLSFQKGDQMVVLEESGEWWKARSLATRKEGYIPSNYVARVDS , give the reported Kd.
Solution: 48
